Test system: MCF-7 cells
ASSAY: MCF-7 cell proliferation assay (WST-8), in the presence or absence of 0.1 nM E2
Format: cell-based, human
OUTCOME_MEASURE: Estrogenic / antiestrogenic activity toward MCF-7 (in words)

CN(C)CCCOc1ccc(C2=C(c3ccc(O)cc3)CCSCC2)cc1 [5d]    acted as ER antagonists
CN(C)CCCOc1ccc(C2=C(c3ccc(O)cc3)CSC2)cc1 [4d]    acted as ER antagonists

Values were extracted from paper PMC6864722.
